# Tested on: KG-1 (Acute Myeloid Leukemia)
# assay summary: Bliss excess, mean over the matrix (fraction); higher = more synergy;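 further: after 72 h of two-drug dosing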
observable: Bliss excess
Give your answer as a number; write no unit.

Lab note: measured Bliss excess of C[C@@H](c1ccc2nccn2c1)n1nnc2ncc(-c3cnn(C)c3)nc21 [Savolitinib] + Cc1c2c(nn1C)CSCc1cc(n(C)n1)CSc1cc(c3ccccc3c1)OCCCc1c(C(=O)O)n(C)c3c-2c(Cl)ccc13 [AZD5991] (first compound max 1 µM, 7x7, partner max 1 µM) was -0.0383

Lab note: measured Bliss excess of CC(=O)c1c(C)c2cnc(Nc3ccc(N4CCNCC4)cn3)nc2n(C2CCCC2)c1=O [Palbociclib] + CC1(C)CCC(CN2CCN(c3ccc(C(=O)NS(=O)(=O)c4ccc(NCC5CCOCC5)c([N+](=O)[O-])c4)c(Oc4cnc5[nH]ccc5c4)c3)CC2)=C(c2ccc(Cl)cc2)C1 [Venetoclax] (first compound max 10 µM, 7x7, partner max 1 µM) was 0.0888

Lab note: measured Bliss excess of COc1nnc2ccc(N3CCC(c4ccc(OCCN5CCN(C)C(=O)[C@H]5C)cc4)CC3)nn12 [AZD5153] + CC1(C)CCC(CN2CCN(c3ccc(C(=O)NS(=O)(=O)c4ccc(NCC5CCOCC5)c([N+](=O)[O-])c4)c(Oc4cnc5[nH]ccc5c4)c3)CC2)=C(c2ccc(Cl)cc2)C1 [Venetoclax] (first compound max 1 µM, 7x7, partner max 1 µM) was 0.163

Lab note: measured Bliss excess of Cc1c2c(nn1C)CSCc1cc(n(C)n1)CSc1cc(c3ccccc3c1)OCCCc1c(C(=O)O)n(C)c3c-2c(Cl)ccc13 [AZD5991] + CN(C)CCCOc1ccc(-c2ccc3ncc4c(c3c2)n(C2CCOCC2)c(=O)n4C)cn1 [AZD0156] (first compound max 1 µM, 7x7, partner max 1 µM) was 0.0115

Lab note: measured Bliss excess of COc1nnc2ccc(N3CCC(c4ccc(OCCN5CCN(C)C(=O)[C@H]5C)cc4)CC3)nn12 [AZD5153] + CCN(CCO)CCCOc1ccc2c(Nc3cc(CC(=O)Nc4cccc(F)c4)[nH]n3)ncnc2c1 [AZD2811] (first compound max 1 µM, 7x7, partner max 1 µM) was 0.0074

Lab note: measured Bliss excess of CN(C)CCCOc1ccc(-c2ccc3ncc4c(c3c2)n(C2CCOCC2)c(=O)n4C)cn1 [AZD0156] + C[C@@H]1COCCN1C2=NC(=NC(=C2)C3(CC3)[S@](=N)(=O)C)C4=C5C=CNC5=NC=C4 [AZD6738] (first compound max 1 µM, 7x7, partner max 10 µM) was 0.128

Lab note: measured Bliss excess of Cc1cc2ncnn2cc1Nc1ncc2c(n1)n(C1CCOCC1)c(=O)n2C [AZD7648] + CCN(CCO)CCCOc1ccc2c(Nc3cc(CC(=O)Nc4cccc(F)c4)[nH]n3)ncnc2c1 [AZD2811] (first compound max 10 µM, 7x7, partner max 1 µM) was 0.0351

----------
Provide the recorded Bliss excess for the entries that follow.
# Tested on: HCC38 (Breast Carcinoma)
# assay summary: Bliss excess, mean over the matrix (fraction); higher = more synergy
Give your answer as a number; write no unit.

Test item COc1cccc(OCCCN)c1-c1cc(Nc2cnc(C#N)cn2)n[nH]1 [Prexasertib] + CCc1c2c(nc3ccc(O)cc13)-c1cc3c(c(=O)n1C2)COC(=O)[C@]3(O)CC [SN-38] (first compound max 1 µM, 7x7, partner max 0.3 µM) ; HCC38 (Breast Carcinoma); reported Bliss excess was -0.0201

Test item C[C@@H](c1ccc2nccn2c1)n1nnc2ncc(-c3cnn(C)c3)nc21 [Savolitinib] + CC1(C)CCC(CN2CCN(c3ccc(C(=O)NS(=O)(=O)c4ccc(NCC5CCOCC5)c([N+](=O)[O-])c4)c(Oc4cnc5[nH]ccc5c4)c3)CC2)=C(c2ccc(Cl)cc2)C1 [Venetoclax] (first compound max 1 µM, 7x7, partner max 1 µM) ; HCC38 (Breast Carcinoma); reported Bliss excess was -0.0111
